Where these numbers come from: the supplement of paper PMC12645437

Measured target: T1, CRBN, Q96SW2;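 further: pooled lentiviral library of zinc finger degron-EGFP fusions in mCherry-positive Jurkat cells, FACS-sorted after compound exposure, with degron abundance counted by next-generation sequencing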
T1 chain: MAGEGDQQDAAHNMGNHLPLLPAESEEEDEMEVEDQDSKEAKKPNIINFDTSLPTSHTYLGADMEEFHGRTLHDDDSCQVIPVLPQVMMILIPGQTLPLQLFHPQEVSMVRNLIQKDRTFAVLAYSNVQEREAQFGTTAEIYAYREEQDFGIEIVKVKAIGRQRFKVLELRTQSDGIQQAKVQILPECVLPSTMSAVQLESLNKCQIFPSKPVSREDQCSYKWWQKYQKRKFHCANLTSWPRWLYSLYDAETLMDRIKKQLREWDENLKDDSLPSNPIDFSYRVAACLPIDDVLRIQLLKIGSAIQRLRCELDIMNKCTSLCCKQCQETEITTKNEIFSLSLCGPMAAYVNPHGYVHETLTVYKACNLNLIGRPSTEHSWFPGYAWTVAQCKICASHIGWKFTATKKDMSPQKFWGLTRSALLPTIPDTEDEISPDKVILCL
Protocol notes: log2 fold change of degron read counts, EGFP-low vs EGFP+ sorted cells (limma voom), compound-induced degradation; higher = more compound-induced degradation of the degron-EGFP fusion; degrons are variants of IKZF1/3 zinc finger 2; compound dose not given here
Condition parameters: Jurkat; 18 h; compound: compound 33 (diphenyl IMiD analogue)
The full ranking holds about 8,300 sequences; the median of “log2 fold change of degron read counts, EGFP-low vs EGFP+ sorted cells (limma voom), compound-induced degradation” is about -1.1, and the highest 2% start at about 3.2. Many of the other results were omitted from the sample, so the highest values are more common in it than they were.
Recorded endpoint: log2 fold change of degron read counts
Numbers only.

Sequence code: FACEVCGAPFTQKGNLLRHIKL [46F_47A_49E_50V_52G_53A_54P_55F_67L_, Q9UKT9]
log2 fold change of degron read counts: -0.375

Sequence code: FLCPQCGATFTQKGNLLRHIKL [46F_47L_49P_50Q_52G_53A_54T_55F_67L_, Q9UKT9]
log2 fold change of degron read counts: -0.206

Sequence code: FDCEVCGAPFTQKGNLLRHIKL [46F_47D_49E_50V_52G_53A_54P_55F_67L_, Q9UKT9]
log2 fold change of degron read counts: -1.15

Sequence code: LGCPICGFKCTQKGNLLRHIKL [46L_47G_49P_50I_52G_53F_54K_55C_67L_, Q9UKT9]
log2 fold change of degron read counts: -0.000486

Sequence code: LHCPICGFKCTQKGNLLRHIKL [46L_47H_49P_50I_52G_53F_54K_55C_67L_, Q9UKT9]
log2 fold change of degron read counts: 1.15

Go through the items and report each one's log2 fold change of degron read counts.
1. FICEVCGAPFTQKGNLLRHIKL [46F_47I_49E_50V_52G_53A_54P_55F_67L_, Q9UKT9]
2. FFCEVCGADFTQKGNLLRHIKL [46F_47F_49E_50V_52G_53A_54D_55F_67L_, Q9UKT9]
3. FFCEICGRAFTQKGNLLRHIKL [46F_47F_49E_50I_52G_53R_54A_55F_67L_, Q9UKT9]
4. LHCEICGFCCTQKGNLLRHIKL [46L_47H_49E_50I_52G_53F_54C_55C_67L_, Q9UKT9]
5. LECPICGFKCTQKGNLLRHIKL [46L_47E_49P_50I_52G_53F_54K_55C_67L_, Q9UKT9]
6. FACEICGRIFTQKGNLLRHIKL [46F_47A_49E_50I_52G_53R_54I_55F_67L_, Q9UKT9]

1: 2.78; 2: -0.854; 3: 0.402; 4: 1.25; 5: 0.961; 6: -1.49

Go through the items and report each one's log2 fold change of degron read counts.
1. FNCEVCGAPFTQKGNLLRHIKL [46F_47N_49E_50V_52G_53A_54P_55F_67L_, Q9UKT9]
2. LACNQCGFRCTQKGNLLRHIKL [46L_47A_49N_50Q_52G_53F_54R_55C_67L_, Q9UKT9]
3. FCCNVCGAPFTQKGNLLRHIKL [46F_47C_49N_50V_52G_53A_54P_55F_67L_, Q9UKT9]
4. LACPICGFNCTQKGNLLRHIKL [46L_47A_49P_50I_52G_53F_54N_55C_67L_, Q9UKT9]

0.0261
-1.86
-0.00676
1.93
